- MEASURED ON: DCAMKL3 (Homo sapiens)
- Sequence (Q9C098 whole entry): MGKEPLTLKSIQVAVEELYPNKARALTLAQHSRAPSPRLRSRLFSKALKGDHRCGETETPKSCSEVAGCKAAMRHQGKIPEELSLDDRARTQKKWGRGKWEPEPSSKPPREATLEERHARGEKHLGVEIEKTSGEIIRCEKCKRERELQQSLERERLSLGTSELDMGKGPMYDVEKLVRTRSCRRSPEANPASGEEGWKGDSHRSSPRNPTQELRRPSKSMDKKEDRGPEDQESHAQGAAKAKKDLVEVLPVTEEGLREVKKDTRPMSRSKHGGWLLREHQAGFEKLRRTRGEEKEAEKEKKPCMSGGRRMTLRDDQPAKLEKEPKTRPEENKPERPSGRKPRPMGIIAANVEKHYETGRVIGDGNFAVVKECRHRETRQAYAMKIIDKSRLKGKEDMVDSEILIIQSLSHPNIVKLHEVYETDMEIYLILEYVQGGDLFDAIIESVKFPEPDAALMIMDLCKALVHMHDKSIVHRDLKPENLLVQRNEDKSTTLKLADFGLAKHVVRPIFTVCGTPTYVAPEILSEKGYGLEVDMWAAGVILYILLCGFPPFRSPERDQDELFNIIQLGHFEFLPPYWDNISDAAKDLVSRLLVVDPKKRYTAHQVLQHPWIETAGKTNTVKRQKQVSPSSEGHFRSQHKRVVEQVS
- TEST METHOD NOTES: KINOMEscan competition binding
- MEASUREMENT SETUP: read-out: %Inh DCAMKL3
MEASURE: inhibition at 1 µM (%)
Give just the number in %; leave the unit off.

>  <COMPOUND>
O=c1cc(N2CCOCC2)nc2n(Cc3cccc(Cl)c3Cl)c(C3CC3)nn12 [UNC10225469A]

>  <MEASURED ON>
DCAMKL3 (Homo sapiens)

>  <MEASURE>
inhibition at 1 µM

>  <VAL>
17

$$$$
>  <COMPOUND>
COc1cccc(OC)c1C(=O)Nc1cccc(-c2nn3ccccc3c2-c2ccnc(Nc3cccc(F)c3)n2)c1 [UNC10225310A]

>  <MEASURED ON>
DCAMKL3 (Homo sapiens)

>  <MEASURE>
inhibition at 1 µM

>  <VAL>
16

$$$$
>  <COMPOUND>
Cc1ccc(NC(=O)Nc2cccc(C(F)(F)F)c2)cc1 [UNC10225187A]

>  <MEASURED ON>
DCAMKL3 (Homo sapiens)

>  <MEASURE>
inhibition at 1 µM

>  <VAL>
13

$$$$

Report measured inhibition at 1 µM; entry is CS(=O)(=O)Cc1ccc(Nc2nccc(-c3c(-c4cccc(NC(=O)C5CCCCC5)c4)nn4ncccc34)n2)cc1 [UNC10225159A] 0

Give me measured inhibition at 1 µM, please, for this compound: Cn1cc(-c2cnc(N)c3c(-c4ccc5c(c4)CCN5C(=O)Cc4ccccc4)csc23)cn1 [UNC10225012A] 5

----------
Here, each record is paired with measured inhibition at 1 µM data.
- MEASURED ON: DDR1 (Homo sapiens)
- Sequence (Q08345 19-913): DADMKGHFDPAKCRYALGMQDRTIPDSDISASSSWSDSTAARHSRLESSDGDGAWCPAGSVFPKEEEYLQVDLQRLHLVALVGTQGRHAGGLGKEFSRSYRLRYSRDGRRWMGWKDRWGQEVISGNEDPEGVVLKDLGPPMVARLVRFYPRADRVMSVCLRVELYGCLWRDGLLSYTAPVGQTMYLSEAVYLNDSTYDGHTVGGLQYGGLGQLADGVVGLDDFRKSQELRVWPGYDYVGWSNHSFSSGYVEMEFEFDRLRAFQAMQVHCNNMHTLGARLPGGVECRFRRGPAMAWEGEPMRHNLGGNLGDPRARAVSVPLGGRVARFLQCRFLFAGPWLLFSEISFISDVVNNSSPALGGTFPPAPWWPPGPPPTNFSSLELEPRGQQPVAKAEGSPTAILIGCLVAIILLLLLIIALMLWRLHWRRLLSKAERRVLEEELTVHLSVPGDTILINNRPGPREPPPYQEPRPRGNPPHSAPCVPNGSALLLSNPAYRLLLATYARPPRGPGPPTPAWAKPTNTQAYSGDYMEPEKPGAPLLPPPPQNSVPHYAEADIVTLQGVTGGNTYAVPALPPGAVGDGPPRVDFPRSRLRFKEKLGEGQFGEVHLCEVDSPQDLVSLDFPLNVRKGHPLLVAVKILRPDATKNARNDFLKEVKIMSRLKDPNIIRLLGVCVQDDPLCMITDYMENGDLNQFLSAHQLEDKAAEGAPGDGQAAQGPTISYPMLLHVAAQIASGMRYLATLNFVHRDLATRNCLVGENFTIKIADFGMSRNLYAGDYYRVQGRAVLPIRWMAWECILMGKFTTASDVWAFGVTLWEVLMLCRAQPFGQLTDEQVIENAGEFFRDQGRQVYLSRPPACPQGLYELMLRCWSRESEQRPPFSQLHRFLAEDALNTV
- TEST METHOD NOTES: KINOMEscan competition binding
- MEASUREMENT SETUP: read-out: %Inh DDR1
Quick reminder: number only, in %, skip the unit.

>  <COMPOUND>
Cn1cc(-c2cnc(N)c3c(-c4ccc5c(c4)CCN5C(=O)Cc4ccccc4)csc23)cn1 [UNC10225012A]

>  <RESULT UNITS>
%

>  <inhibition at 1 µM>
97.7

$$$$
>  <COMPOUND>
COc1cccc(OC)c1C(=O)Nc1cccc(-c2nn3ccccc3c2-c2ccnc(Nc3cccc(F)c3)n2)c1 [UNC10225310A]

>  <RESULT UNITS>
%

>  <inhibition at 1 µM>
99.3

$$$$
>  <COMPOUND>
CS(=O)(=O)Cc1ccc(Nc2nccc(-c3c(-c4cccc(NC(=O)C5CCCCC5)c4)nn4ncccc34)n2)cc1 [UNC10225159A]

>  <RESULT UNITS>
%

>  <inhibition at 1 µM>
96.6

$$$$
>  <COMPOUND>
O=c1cc(N2CCOCC2)nc2n(Cc3cccc(Cl)c3Cl)c(C3CC3)nn12 [UNC10225469A]

>  <RESULT UNITS>
%

>  <inhibition at 1 µM>
21

$$$$

In the following, a different compound is considered.
Find inhibition at 1 µM for Cc1ccc(NC(=O)Nc2cccc(C(F)(F)F)c2)cc1 [UNC10225187A] on DDR1 (Homo sapiens) and write it down. 43

----------
- MEASURED ON: FLT3 (Homo sapiens, UniProt P36888)
- Sequence (P36888 27-993): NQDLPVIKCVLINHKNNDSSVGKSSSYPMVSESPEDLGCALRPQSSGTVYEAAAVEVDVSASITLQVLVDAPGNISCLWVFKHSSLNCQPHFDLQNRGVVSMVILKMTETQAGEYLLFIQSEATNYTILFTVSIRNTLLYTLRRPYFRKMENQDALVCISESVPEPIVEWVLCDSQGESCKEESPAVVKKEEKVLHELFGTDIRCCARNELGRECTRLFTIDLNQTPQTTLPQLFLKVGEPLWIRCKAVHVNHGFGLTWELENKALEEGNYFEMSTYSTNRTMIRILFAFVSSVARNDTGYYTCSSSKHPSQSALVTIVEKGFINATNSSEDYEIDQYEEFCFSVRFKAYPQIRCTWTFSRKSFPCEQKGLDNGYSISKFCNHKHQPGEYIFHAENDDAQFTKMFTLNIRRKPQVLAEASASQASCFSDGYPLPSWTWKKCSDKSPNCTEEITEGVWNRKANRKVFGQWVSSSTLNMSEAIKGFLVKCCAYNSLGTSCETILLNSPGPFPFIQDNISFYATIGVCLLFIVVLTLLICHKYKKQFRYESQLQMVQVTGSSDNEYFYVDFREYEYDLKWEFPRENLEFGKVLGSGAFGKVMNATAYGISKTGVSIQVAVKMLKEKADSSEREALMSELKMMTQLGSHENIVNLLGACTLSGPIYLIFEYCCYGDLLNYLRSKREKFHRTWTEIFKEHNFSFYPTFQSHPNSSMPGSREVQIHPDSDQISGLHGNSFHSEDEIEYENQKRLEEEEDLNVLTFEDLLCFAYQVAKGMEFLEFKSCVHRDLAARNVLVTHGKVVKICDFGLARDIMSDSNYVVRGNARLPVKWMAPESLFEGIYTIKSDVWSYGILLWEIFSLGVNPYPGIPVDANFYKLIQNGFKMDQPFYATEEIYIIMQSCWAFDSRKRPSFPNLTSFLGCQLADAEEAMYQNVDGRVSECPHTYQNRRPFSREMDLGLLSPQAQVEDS
- TEST METHOD NOTES: KINOMEscan competition binding
- MEASUREMENT SETUP: read-out: %Inh FLT3
MEASURE: inhibition at 1 µM

>  <COMPOUND>
CS(=O)(=O)Cc1ccc(Nc2nccc(-c3c(-c4cccc(NC(=O)C5CCCCC5)c4)nn4ncccc34)n2)cc1 [UNC10225159A]

>  <inhibition at 1 µM>
88%

$$$$

Give inhibition at 1 µM; test system FLT3 (Homo sapiens, UniProt P36888); compound O=c1cc(N2CCOCC2)nc2n(Cc3cccc(Cl)c3Cl)c(C3CC3)nn12 [UNC10225469A] 10%

Provide FLT3 (Homo sapiens, UniProt P36888) inhibition at 1 µM reading for Cn1cc(-c2cnc(N)c3c(-c4ccc5c(c4)CCN5C(=O)Cc4ccccc4)csc23)cn1 [UNC10225012A] . 99%

Give the observed inhibition at 1 µM of COc1cccc(OC)c1C(=O)Nc1cccc(-c2nn3ccccc3c2-c2ccnc(Nc3cccc(F)c3)n2)c1 [UNC10225310A] for FLT3 (Homo sapiens, UniProt P36888). 49%

Write down measured inhibition at 1 µM (FLT3 (Homo sapiens, UniProt P36888)) for this compound. Cc1ccc(NC(=O)Nc2cccc(C(F)(F)F)c2)cc1 [UNC10225187A] 59%

The reported numbers originate from paper PMC5540273.
